Tested on: SF-268 CNS
test summary: NCI tumour cell line growth inhibition, 48 h
Reported values of TGI for individual entries
property name: TGI

>>> print(df.to_string())
                                    molecule  property_name  readout_value
 0  COc1cc(-c2ccc(Nc3ccccc3C(=O)O)c(OC)c2)ccc1Nc1ccccc1C(=O)O            TGI       > 100 µM
 1  CC(=O)N1N=C(c2ccc3ccccc3c2O)CC1c1ccc(Cl)cc1Cl (configuration not stated)            TGI        93.1 µM
 2     O=[N+]([O-])c1ccc(N/N=C/c2ccccc2O)nc1            TGI       > 100 µM
 3         Cc1ccc(S(=O)(=O)Nc2cccc(C)c2C)cc1            TGI       > 100 µM
 4  CC(N)CN.CC(N)CN.[Cl-].[O]=[Os+2]=[O] (configuration not stated)            TGI       > 100 µM
 5  Cc1ccc(C)c(NC(=O)/C(=N\N)C(c2cnc3ccc([N+](=O)[O-])cc3n2)[N+](=O)[O-])c1 (configuration not stated)            TGI       > 100 µM
 6  CN(C(=O)C12C3C4C1C1C2C3C41C(=O)N(C)C(C)(C)C)C(C)(C)C (configuration not stated)            TGI        > 50 µM
 7  COc1cc2c(cc1OCc1ccccc1)N=C[C@@H]1C[C@@H](F)CN1C2=O            TGI           1 µM
 8  C=C(C)C1Cc2c(cc(OC)c3c(=O)c4ccccc4n(C)c23)O1 (configuration not stated)            TGI       > 100 µM
 9  CCSC1=C(C#N)C2(CCCCC2)C2=C(CC(C)(C)CC2=O)N1            TGI       > 100 µM
10                  Cc1ccc2nc3sc(=O)sc3nc2c1            TGI        30.1 µM
11  Cc1cc(C(=O)N2CCN(C)CC2)c2c(=O)n(-c3ccccc3)c(=O)n(CC(O)CN3CCN(c4ncccn4)CC3)c2n1 (configuration not stated)            TGI       > 100 µM

Origin of values: PubChem BioAssay (NCI)
